tested on: EPHB1; details: concentration: 1 μM, replicates: in singlicate; n = 1;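 note: KINOMEscan kinase panel screen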
Attribute measured: %Inh (%)
Give bare numbers, in %.

Look over these answered cases.
In [3]: df
Out[3]:
                        structure_as_smiles  measured_result
0  Cl.O=C(Nc1ccc(Oc2ccc3[nH]c(NC(=O)c4ccco4)nc3c2)cc1)Nc1cc(C(F)(F)F)ccc1F               70
1  COC(=O)Nc1nc2cc(Oc3ccc(NC(=O)Nc4cccc(SC)c4)cc3)ccc2[nH]1.Cl               61
2  Fc1cc(Cl)ccc1Nc1ccnc2cc(-c3ccc(CN4CCSCC4)o3)ccc12               43

Read the next record carefully.
IN: Looking for the measured %Inh of Cc1ccc(NC(=O)c2ccnc(N3CCCCC3)c2)cc1-c1ccc(C(=O)NCC2CC2)cc1 , can you help?
OUT: 0
